Measured GI50 by item
Tested on: CAKI-1
Assay: NCI tumour cell line growth inhibition, 48 h
The source made the active and inactive calls. Cut-off read from the data, not from the text of the source: active = GI50 up to about 1.1 µM and inactive = higher.

CSC(C1c2ccccc2N(C)c2[nH]c(=O)n(C)c(=O)c21)S(=O)(=O)c1ccc(C)cc1 (stereo unspecified) | > 100 µM (inactive)
Nc1ccccc1.O=P(O)(O)c1ccccc1 | > 100 µM (inactive)
NC(=S)N/N=C\c1ccc(OCc2cccc(COc3ccc(/C=N/NC(N)=S)cc3)n2)cc1 | 17 µM (inactive)

Q. May I ask what GI50 has been recorded for "Cc1ccc(S(=O)(=O)N/C(=C\C=C\c2ccccc2)C(=O)C(C)(C)C)cc1" ?
A. > 100 µM (inactive)

Q. May I ask what GI50 has been recorded for CC1(C)O[C@H]2OC(CO)C(N=[N+]=[N-])[C@H]2O1 (stereo partly specified) ?
A. > 100 µM (inactive)

Q. May I ask what GI50 has been recorded for "Sc1nc(S)nc(Oc2ccc(Cl)c(Cl)c2)n1" ?
A. 46.3 µM (inactive)

---

System: CAKI-1
Experiment: NCI tumour cell line growth inhibition, 48 h
Calls of active or inactive are those of the source. Cut-off read from the data, not from the text of the source: active = GI50 up to about 1.1 µM and inactive = higher.
Allowed answers: yes (active), no (inactive)

Answered cases to consult:
CC(C)[N+]([O-])(CCCNc1c2ccccc2nc2cccc([N+](=O)[O-])c12)C(C)C | yes
CC1=NN(C(=O)c2ccc(Cl)cc2)C(=O)/C1=C/c1ccc(O)cc1 | no

Field: next compound
Q. Check the results log: what was the call for "COc1ccccc1/N=N/C(=N/NC(=O)c1ccc(C)cc1)c1ccc(N(CCC#N)CCC#N)cc1OC" ?
A. no

---

Test system: HCC 2998
Experiment: NCI tumour cell line growth inhibition, 48 h
Calls of active or inactive are those of the source. Cut-off read from the data, not from the text of the source: active = GI50 up to about 1.1 µM and inactive = higher.
measuredParameter: GI50

Here's what some known entries look like.
Cc1cccc2c1c(=O)c1c(O)c3c(cc1n2C)OC(C)(C)C=C3 | > 10 µM (inactive)
NC(=O)NCCCC(NC(=O)OCCCCCCn1ccc(=O)[nH]c1=O)C(=O)O (centres undefined) | > 100 µM (inactive)

Q. GI50 of Cc1nnc(N)nc1C/C=C/C(Sc1ccc(Cl)cc1)c1ccccc1 (centres undefined) on HCC 2998?
A. 9.38 µM (inactive)

Q. GI50 of "CCOc1ccc2c(c1)/C(=C(\C(Cl)=C(Cl)Cl)[N+](=O)[O-])N2" on HCC 2998?
A. > 100 µM (inactive)

---

System: HCT-116
Experiment: NCI tumour cell line growth inhibition, 48 h
Active and inactive are the calls of the source. No stated cut-off is given here; in the data, active = GI50 up to about 1.1 µM and inactive = higher.
Allowed answers: active, inactive

Answered cases to consult:
O=c1cc[nH]c2c1ccc1ncccc12 | inactive
CCOC(=O)/C=C/n1c2ccccc2c(=O)c2cc(OC)ccc21 | inactive
O=S(=O)(O)c1ccc(NN(c2c(O)ccc3ccccc23)S(=O)(=O)O)cc1 | inactive
O=C(O)c1c2c(cc3c1CC(Cc1ccccc1)C3=O)CCC2 (configuration not stated) | inactive
C=C1[C@@H]([C@@]2(C)C=CC(=O)C(C)(C)[C@@H]2CC(=O)OC)CC[C@@]2(C)[C@H](c3ccoc3)OC(=O)[C@H]3O[C@]132 | inactive

Q. Check the results log: what was the call for "Cc1ccc2ccc3ccc(C)nc3c2n1" ?
A. active

Q. Check the results log: what was the call for O=C(Nc1ccc(Cl)c(C(F)(F)F)c1)C(=O)C(C(=O)/C=C/c1ccccc1)C1OC(=O)c2ccccc21 (configuration not stated) ?
A. inactive

Q. Check the results log: what was the call for COC(=O)C(C(=O)C(=O)Nc1c(C)cccc1C(C)(C)C)c1nc2ccc(Cl)cc2nc1O (configuration not stated) ?
A. inactive

Q. Check the results log: what was the call for "COc1ccc(/N=C2\S/C(=N\C(=N\c3ccccc3)SCc3ccccc3)N(c3ccccc3)\C2=N/c2ccc(OC)cc2)cc1" ?
A. inactive

Q. Check the results log: what was the call for "Cc1c(-c2ccccc2)c(C#N)c2nnc(C(N)=O)c(N)n12" ?
A. inactive

Q. Check the results log: what was the call for C#CC(O)Cc1ccc(OC)c2occc12 (configuration not stated) ?
A. inactive

Q. Check the results log: what was the call for "CCc1ccc(NCc2cc(OC)c(OC)c(OC)c2)cc1" ?
A. active

---

Test system: NCI-H23
Assay: NCI tumour cell line growth inhibition, 48 h
Active and inactive are the calls of the source. No stated cut-off is given here; in the data, active = GI50 up to about 1.1 µM and inactive = higher.
Allowed answers: T (active), F (inactive)

Answered cases to consult:
CC#Cc1cc2c(cc1O)CC[C@@H]1[C@@H]2CC[C@]2(C)[C@@H](O)CC[C@@H]12 | F
OCCCNc1[nH]cnc2nncc1-2 | F
Cc1ccc(C)c(COCCOCn2c(=O)[nH]c(=O)c3cc(Br)ccc32)c1 | F
CCN(CC)CCC(=O)O[C@H]1CC[C@H](CC(C)[C@H]2CC(=O)C(C)C=C(C)[C@H](OC(=O)CCN(CC)CC)C(OC)C(=O)[C@@H](C)CC(C)/C=C/C=C/C=C(C)C(OC)CC3CC[C@H](C)[C@](O)(O3)C(=O)C(=O)N3CCCCC3C(=O)O2)CC1OC (some centres undefined) | T
COC(=O)c1ccc(/C=C2\CCc3ccccc3C2=O)cc1 | F
O/N=N/c1cnccn1 | F
CS(=O)(=O)NNS(=O)(=O)c1ccc(Cl)cc1 | F
CC(=O)Nc1ccc(C(=O)NN2C(=O)C(Cl)C2c2cc(Br)ccc2O)cc1 (centres undefined) | F

Q. Check the results log: what was the call for "COc1cc(Cc2cc(OC)c(OC)c(OC)c2)ccc1O" ?
A. F

Q. Check the results log: what was the call for COC(=N)c1csc(C2OC(CO)C(O)C2O)n1 (centres undefined) ?
A. F

Q. Check the results log: what was the call for "Cc1nc2ccccc2n1Cc1ccc(NC(=S)Nc2ccccc2)cc1" ?
A. F

Q. Check the results log: what was the call for "O=S(=O)(/N=C1/S/C(=N\c2ccccc2)N(c2ccccc2)/C1=N/S(=O)(=O)c1ccccc1)c1ccccc1" ?
A. F

Q. Check the results log: what was the call for Cc1ccc(C2c3c(n(C)c(=O)n(C)c3=O)OC(N(C)C)(N(C)C)C2(F)F)cc1 (centres undefined) ?
A. F

Q. Check the results log: what was the call for "C/C=C/COc1cc(NC(=S)c2ccoc2C)ccc1OC" ?
A. F

Q. Check the results log: what was the call for O=[N+]([O-])c1ccc(C(O)(C#CCN2CCCC2)c2ccccc2)cc1 (centres undefined) ?
A. F

---

Test system: ACHN
Assay: NCI tumour cell line growth inhibition, 48 h
Active and inactive are the calls of the source. No stated cut-off is given here; in the data, active = GI50 up to about 1.1 µM and inactive = higher. Non-standard residues stand in square brackets, D forms with d. Residues, ends and D or L forms follow the SMILES beside them. *: point of attachment. Ac5c = NC1(C(=O)O)CCCC1; Boc = CC(C)(C)OC(=O)*; tBu = CC(C)(C)*
measuredParameter: GI50

Cc1ccc(/C=C2\N=C(N3CCCC(CO)C3)NC2=O)cc1 (stereo unspecified) | > 100 µM (inactive)
O=C1c2c(O)ccc(O)c2C(=O)c2c(NCCNC(=O)C(O)C(O)C(O)C(O)CO)ccc(NCCNC(=O)C(O)C(O)C(O)C(O)CO)c21 (stereo unspecified) | < 0.01 µM (active)
Cc1ccc(C(=O)/C=C2/Nc3ccccc3NC2=O)c(C)c1 | 8.36 µM (inactive)

Q. May I ask what GI50 has been recorded for "O=C(O)C(Cc1ccc2c(c1)CCC2)(Cc1ccc2c(c1)CCC2)C(=O)O" ?
A. > 100 µM (inactive)

Q. May I ask what GI50 has been recorded for "CC(C)CNC(=O)CCc1cccc2c1oc1c(CCN)cccc12" ?
A. 12.8 µM (inactive)

Q. May I ask what GI50 has been recorded for N=C(N)N/N=C(/c1nc2ccc([N+](=O)[O-])cc2[nH]c1=O)C(O)c1ccc([N+](=O)[O-])cc1 (stereo unspecified) ?
A. 21.3 µM (inactive)

Q. May I ask what GI50 has been recorded for Cc1ccc2c(c1)C=CC1(O2)N(c2ccccc2)C(=S)OC1(C)C (stereo unspecified) ?
A. > 100 µM (inactive)

Q. May I ask what GI50 has been recorded for "COc1ccc(NCC#N)cc1" ?
A. > 100 µM (inactive)

Q. May I ask what GI50 has been recorded for "C/C(=N\NC(=S)Nc1ccc([N+](=O)[O-])cc1S(=O)(=O)O)c1ccccn1" ?
A. 62.4 µM (inactive)

Q. May I ask what GI50 has been recorded for "CCOC(=O)Cc1nnc2n(-c3ccccc3)c(=O)c3ccccc3n12" ?
A. > 100 µM (inactive)

Q. May I ask what GI50 has been recorded for "O=c1[nH]c(=O)n2n1C1C=CC2CC1" ?
A. > 100 µM (inactive)

Q. May I ask what GI50 has been recorded for "C=C1[C@@H]([C@@]2(C)C=CC(=O)C(C)(C)[C@@H]2CC(=O)OC)CC[C@@]2(C)[C@H](c3ccoc3)OC(=O)[C@H]3O[C@]132" ?
A. > 100 µM (inactive)

Q. May I ask what GI50 has been recorded for "CCCC(=O)Nc1cn(COC)c(C(=O)N2C[C@H]3C[C@@]34C2=CC(=O)c2[nH]cc(C)c24)n1" ?
A. 2.42 µM (inactive)

Q. May I ask what GI50 has been recorded for "CN(/N=C/c1cccc2cccnc12)c1ccc(Cl)cc1[N+](=O)[O-]" ?
A. > 100 µM (inactive)

Q. May I ask what GI50 has been recorded for "O=c1cccccc1NCCCCCCNc1cccccc1=O" ?
A. > 100 µM (inactive)

Q. May I ask what GI50 has been recorded for CC(OC(C)(C)C)C1NC(=O)C(CCCCNC(=O)OC(C)(C)C)NC(=O)C(Cc2c[nH]c3ccccc23)NC(=O)C(Cc2ccccc2)NC(=O)C2(CCCC2)NC(=O)C(Cc2ccccc2)NC1=O (stereo unspecified) (cyclo([Ac5c]FWK(Boc)T(tBu)F); configuration not given here) ?
A. 32.4 µM (inactive)

These entries and their values trace back to ChEMBL document CHEMBL1201862.
